# experimental_target: Human PARP-1 enzyme (Homo sapiens, UniProt P09874)
# Construct: purchased Trevigen
# Sequence (P09874 whole entry): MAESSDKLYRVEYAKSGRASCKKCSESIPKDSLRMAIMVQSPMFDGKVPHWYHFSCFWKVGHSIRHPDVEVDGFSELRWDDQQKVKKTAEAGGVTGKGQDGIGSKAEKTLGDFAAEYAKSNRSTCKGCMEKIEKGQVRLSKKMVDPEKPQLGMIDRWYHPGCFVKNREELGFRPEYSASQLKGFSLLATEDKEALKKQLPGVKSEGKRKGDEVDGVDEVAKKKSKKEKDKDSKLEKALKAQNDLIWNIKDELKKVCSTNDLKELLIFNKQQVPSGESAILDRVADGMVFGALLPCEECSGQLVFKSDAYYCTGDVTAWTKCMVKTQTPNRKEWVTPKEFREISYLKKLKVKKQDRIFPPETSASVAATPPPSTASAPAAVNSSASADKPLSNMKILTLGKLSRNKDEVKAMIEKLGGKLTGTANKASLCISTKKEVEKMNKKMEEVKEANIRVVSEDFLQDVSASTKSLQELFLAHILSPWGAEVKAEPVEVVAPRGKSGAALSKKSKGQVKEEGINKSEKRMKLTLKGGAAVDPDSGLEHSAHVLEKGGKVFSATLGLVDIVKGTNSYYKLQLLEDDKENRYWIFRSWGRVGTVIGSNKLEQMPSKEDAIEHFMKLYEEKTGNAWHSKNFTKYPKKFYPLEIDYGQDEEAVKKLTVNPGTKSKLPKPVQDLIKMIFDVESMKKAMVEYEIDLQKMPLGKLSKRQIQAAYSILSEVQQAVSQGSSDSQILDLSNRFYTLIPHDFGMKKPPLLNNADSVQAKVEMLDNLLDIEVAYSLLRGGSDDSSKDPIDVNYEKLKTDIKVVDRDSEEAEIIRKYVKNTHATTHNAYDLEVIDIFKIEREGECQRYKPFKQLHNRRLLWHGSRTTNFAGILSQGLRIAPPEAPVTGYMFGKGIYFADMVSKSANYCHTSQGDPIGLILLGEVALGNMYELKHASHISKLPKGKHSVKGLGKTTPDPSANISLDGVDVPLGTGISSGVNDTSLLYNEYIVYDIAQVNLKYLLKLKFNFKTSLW
# test_method_notes: In vitro Scintillation Proximity Assay (SPA) for PARP-1 inhibitory activity
# Type: biochemical
# measurement_setup: read-out: in vitro SPA assay PARP-1 pIC50 (converted)

[
  {
    "molecule": "Cc1cc2ccc([C@@](C)(C#N)CCOc3ccccc3)cc2[nH]c1=O (single isomer, unassigned)",
    "IC50, nM": 1580
  },
  {
    "molecule": "CCc1cc2ccc(C(C)(C#N)CCOc3ccccc3C(C)=O)cc2[nH]c1=O (stereo not shown)",
    "IC50, nM": 251
  },
  {
    "molecule": "CCc1cc2ccc(C(C)(C#N)Cc3cccc(-c4ccc[nH]4)c3)cc2[nH]c1=O (stereo not shown)",
    "IC50, nM": 50.1
  },
  {
    "molecule": "CCc1cc2ccc([C@@](C)(C#N)CCOc3ccc(C#N)cc3)cc2[nH]c1=O (single isomer, unassigned)",
    "IC50, nM": 79.4
  },
  {
    "molecule": "Cc1cc2ccc(C(C)(C#N)Cc3cccc(Oc4ccccc4)c3)cc2[nH]c1=O (stereo not shown)",
    "IC50, nM": 200
  },
  {
    "molecule": "CCc1cc2ccc(C(C)(C#N)Cc3cccc(C(=O)OC(C)C)c3)cc2[nH]c1=O (stereo not shown)",
    "IC50, nM": 50.1
  },
  {
    "molecule": "Cc1cc2ccc(C(C)(C#N)Cc3ccc(Cl)s3)cc2[nH]c1=O (stereo not shown)",
    "IC50, nM": 1260
  },
  {
    "molecule": "CCc1cc2ccc([C@](C)(C#N)CCOc3ccc(C#N)cc3)cc2[nH]c1=O (single isomer, unassigned)",
    "IC50, nM": 50.1
  },
  {
    "molecule": "CCc1cc2ccc([C@](C)(C#N)C[C@@H]3Cc4cc(C)ccc4O3)cc2[nH]c1=O (single isomer, unassigned)",
    "IC50, nM": 398
  },
  {
    "molecule": "CCc1cc2ccc(C(C)(C#N)COCc3ccccc3)cc2[nH]c1=O (stereo not shown)",
    "IC50, nM": 100
  }
]
